These entries and their values trace back to patent US10336739B2.

molecular target: human APJ receptor (Homo sapiens (Human), UniProt P35414); experiment: Intracellular cAMP accumulation assay (APJ hcAMP, HTRF); assay type: cell-based; settings: HEK293 cells stably expressing human APJ receptor; inhibition of forskolin-mediated cAMP production; read-out: hAPJ cAMP EC50 Potency range
Sequence (P35414 whole entry): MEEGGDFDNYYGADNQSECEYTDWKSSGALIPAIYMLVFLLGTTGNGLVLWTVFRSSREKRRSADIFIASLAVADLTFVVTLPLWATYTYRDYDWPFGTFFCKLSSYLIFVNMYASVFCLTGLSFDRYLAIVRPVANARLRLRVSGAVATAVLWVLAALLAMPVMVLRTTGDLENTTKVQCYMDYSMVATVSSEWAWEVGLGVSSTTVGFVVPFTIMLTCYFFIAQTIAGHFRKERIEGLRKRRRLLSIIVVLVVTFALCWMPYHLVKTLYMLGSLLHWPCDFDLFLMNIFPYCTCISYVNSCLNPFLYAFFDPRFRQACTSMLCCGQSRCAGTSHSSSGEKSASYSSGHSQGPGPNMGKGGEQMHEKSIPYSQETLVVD
EC50 reference

Please review the entries below; each comes with its answer.
1. CCOCc1nc(O)c(-c2nnc(Cc3noc(-c4ccccn4)n3)o2)c(O)c1-c1c(OC)cccc1OC | 0.01 to 10 nM
2. CCCCc1nc(O)c(-c2nnc(Cc3noc4ccccc34)o2)c(O)c1-c1c(CC)cccc1CC | 0.01 to 10 nM
3. CCCCc1nc(O)c(-c2nnc(Cc3noc4ccccc34)o2)c(O)c1-c1c(OC)ccc(F)c1OC (single isomer, unassigned; isomer 1) [Example 220] | 10 to 100 nM
4. CCCCc1nc(O)c(-c2nnc(Cn3ccnc3)o2)c(O)c1-c1c(OC)cccc1OC | 10 to 100 nM
5. CCCCc1nc(O)c(-c2nnc(Cc3cnn(C)c3)o2)c(O)c1-c1c(OC)cccc1OC | 100 to 300 nM
6. CCCCc1nc(O)c(-c2nnc(Cc3ccc(F)c(C(F)(F)F)c3)o2)c(O)c1-c1c(OC)cccc1OC | 10 to 100 nM
7. CCCCc1nc(O)c(-c2nnc(Cc3c(C)n[nH]c3C)o2)c(O)c1-c1c(OC)cccc1OC | 10 to 100 nM
8. CCCCc1nc(O)c(-c2nnc(Cc3ccc(F)c(F)c3)o2)c(O)c1-c1cccc(C(C)C)c1 | 10 to 100 nM
9. CCCCc1nc(O)c(-c2nnc(CNC(=O)c3ccncc3)o2)c(O)c1-c1c(OC)cccc1OC | 0.01 to 10 nM
10. CCOCc1nc(O)c(-c2nnc(Cc3ccc(F)cn3)o2)c(O)c1-c1c(OC)cccc1OC | 0.01 to 10 nM

Prompt: Would you mind telling me what EC50 value was observed for `CCCCc1nc(O)c(-c2nnc(Cc3nnc(-c4cccnc4)o3)o2)c(O)c1-c1c(OC)cccc1OC` ?
Response: 10 to 100 nM

----------
biological target: human APJ receptor (Homo sapiens (Human)); test: Intracellular cAMP accumulation assay (APJ hcAMP, HTRF); assay type: cell-based; details: HEK293 cells stably expressing human APJ receptor; inhibition of forskolin-mediated cAMP production; read-out: hAPJ cAMP EC50 Potency range
EC50 reference

Please review the entries below; each comes with its answer.
1) CCCCc1nc(O)c(-c2nnc(CN(C)C(=O)c3cccnc3)o2)c(O)c1-c1c(OC)cccc1OC [Example 165] | 0.01 to 10 nM
2) CCCCc1nc(O)c(-c2nnc(Cc3cc(F)cc(C(F)(F)F)c3)o2)c(O)c1-c1c(OC)cccc1OC [Example 57] | 10 to 100 nM
3) CCCCc1nc(O)c(-c2nnc(CC(=O)N(C)C)o2)c(O)c1-c1c(OC)cccc1OC [Example 182] | 0.01 to 10 nM
4) CCOCc1nc(O)c(-c2nnc(Cc3ccc(Cl)cc3F)o2)c(O)c1-c1c(OC)cccc1OC [Example 123] | 0.01 to 10 nM
5) CCCCc1nc(O)c(-c2nnc(COc3ccc(Cl)cc3)o2)c(O)c1-c1c(OC)cccc1OC [Example 53] | 10 to 100 nM

Prompt: Give EC50 (human APJ receptor (Homo sapiens (Human))) of the following molecule: CCCCc1nc(O)c(-c2nnc(C(C)(C)c3ccccc3)o2)c(O)c1-c1c(OC)cccc1OC [Example 15]
Response: 0.01 to 10 nM

Prompt: CCCCc1nc(O)c(-c2nnc(CNC(=O)c3cccc(Cl)c3)o2)c(O)c1-c1c(OC)cccc1OC [Example 162] ?
Response: 0.01 to 10 nM

Prompt: CCCCc1nc(O)c(-c2nnc(CC(C)(C)c3ccc(Cl)cc3)o2)c(O)c1-c1c(OC)cccc1OC [Example 54] ?
Response: 0.01 to 10 nM

Prompt: CCCCc1nc(O)c(-c2nnc(Cc3ccc(F)c(Cl)c3)o2)c(O)c1-c1c(OC)cccc1OC [Example 70] ?
Response: 0.01 to 10 nM

Prompt: CCCCc1nc(O)c(-c2nnc(Cc3ccncc3)o2)c(O)c1-c1c(OC)cccc1OC [Example 3] ?
Response: 10 to 100 nM

Prompt: CCCCc1nc(O)c(-c2nnc(CC(=O)OC(C)(C)C)o2)c(O)c1-c1c(OC)cccc1OC [Example 118] ?
Response: 0.01 to 10 nM

----------
molecular target: human APJ receptor (Homo sapiens (Human), UniProt P35414); test: Intracellular cAMP accumulation assay (APJ hcAMP, HTRF); format: cell-based; conditions: HEK293 cells stably expressing human APJ receptor; inhibition of forskolin-mediated cAMP production; read-out: hAPJ cAMP EC50 Potency range
pEC50: −log10 of the molar value.
pEC50 reference

Prompt: Would you mind telling me what pEC50 value was observed for `CCCCc1nc(O)c(-c2nnc(CC(=O)N3CCOCC3)o2)c(O)c1-c1c(OC)cccc1OC` ?
Response: 8.00 to 11.00

Prompt: `CCCCc1nc(O)c(-c2nnc(Cc3ccccc3OC)o2)c(O)c1-c1c(OC)cccc1OC` ?
Response: 7.00 to 8.00

Prompt: `CCCCc1nc(O)c(-c2nnc(CC(=O)Nc3ccc(OC)cc3)o2)c(O)c1-c1c(OC)cccc1OC` ?
Response: 7.00 to 8.00

Prompt: `CCCCc1nc(O)c(-c2nnc(C(F)(F)c3ccccc3)o2)c(O)c1-c1c(OC)cccc1OC` ?
Response: 7.00 to 8.00

----------
EC50 reference
target: human APJ receptor (Homo sapiens (Human)); test: Intracellular cAMP accumulation assay (APJ hcAMP, HTRF); type: cell-based; settings: HEK293 cells stably expressing human APJ receptor; inhibition of forskolin-mediated cAMP production; read-out: hAPJ cAMP EC50 Potency range

1) CCCCc1[nH]c(=O)c(-c2nnc(Cc3csc(C)n3)o2)c(O)c1-c1cccc(C2CC2)c1 | 0.01 to 10 nM
2) CCCCc1nc(O)c(-c2nnc(COc3ccc(F)c(F)c3)o2)c(O)c1-c1c(OC)cccc1OC | 10 to 100 nM
3) COc1cccc(OC)c1-c1c(C2CC2)nc(O)c(-c2nnc(Cc3csc(C)n3)o2)c1O | 10 to 100 nM

Alright, here's another compound for you.
Prompt: Would you mind telling me what EC50 value was observed for `CCCCc1[nH]c(=O)c(-c2nnc(Cc3csc(C)n3)o2)c(O)c1-c1cccc(CO)c1` ?
Response: 10 to 100 nM

----------
target: human APJ receptor (Homo sapiens (Human), UniProt P35414); assay: Intracellular cAMP accumulation assay (APJ hcAMP, HTRF); assay type: cell-based; conditions: HEK293 cells stably expressing human APJ receptor; inhibition of forskolin-mediated cAMP production; read-out: hAPJ cAMP EC50 (nM) Potency range
observed.property: EC50

1) CCCCc1nc(O)c(-c2nnc(CC(=O)N(C)CCc3ccccc3)o2)c(O)c1-c1c(OC)cccc1OC | 0.01 to 10 nM

Prompt: Would you mind telling me what EC50 value was observed for `COc1cccc(OC)c1-c1c(C2CCCC2)nc(O)c(-c2nnc(Cc3ccc(Cl)cn3)s2)c1O` ?
Response: 10 to 100 nM

Prompt: `CCOCc1nc(O)c(-c2nnc(CNc3ccccc3)o2)c(O)c1-c1c(OC)cccc1OC` ?
Response: 10 to 100 nM

Prompt: `COc1cccc(OC)c1-c1c(C2CCCC2)[nH]c(=O)c(-c2nnc(Cc3ccc(Cl)cc3)o2)c1O` ?
Response: 0.01 to 10 nM

Prompt: `CCCCc1nc(O)c(-c2nnc(CC(=O)Nc3cc(C)n[nH]3)o2)c(O)c1-c1c(OC)cccc1OC` ?
Response: 0.01 to 10 nM

----------
molecular target: UniProt:P35414; experiment: Intracellular cAMP accumulation assay (APJ hcAMP, HTRF); format: cell-based; conditions: HEK293 cells stably expressing human APJ receptor; inhibition of forskolin-mediated cAMP production; read-out: hAPJ cAMP EC50 (nM) Potency range
observed.property: EC50

Please review the entries below; each comes with its answer.
1) CCCCc1nc(O)c(-c2nnc(CNC(=O)c3ccccc3)o2)c(O)c1-c1cccc(OC)c1OC | 0.01 to 10 nM
2) CCCCc1nc(O)c(-c2nnc(CC(=O)NCCc3ccccc3Cl)o2)c(O)c1-c1c(OC)cccc1OC | 0.01 to 10 nM
3) CCCCc1nc(O)c(-c2nnc(CNC(=O)c3ccccc3)o2)c(O)c1-c1cc(C(C)C)ccc1OC | 0.01 to 10 nM
4) CCCCc1nc(O)c(-c2nnc(CC(=O)NCc3nnc(C)o3)o2)c(O)c1-c1c(OC)cccc1OC | 0.01 to 10 nM
5) CCCCc1nc(O)c(-c2nnc(CNC(=O)c3ccccc3)o2)c(O)c1-c1cc(OC)ccc1OC | 0.01 to 10 nM
6) CCCCc1nc(O)c(-c2nnc(CC(=O)NCc3ccc(S(N)(=O)=O)cc3)o2)c(O)c1-c1c(OC)cccc1OC | 10 to 100 nM

Prompt: Would you mind telling me what EC50 value was observed for `CCOCc1nc(O)c(-c2nnc(CC(=O)Nc3nccs3)o2)c(O)c1-c1c(OC)cccc1OC` ?
Response: 0.01 to 10 nM

Prompt: `CCCCc1nc(O)c(-c2nnc(CC(=O)NCc3cc(C(C)C)no3)o2)c(O)c1-c1c(OC)cccc1OC` ?
Response: 0.01 to 10 nM

Prompt: `COCCOCc1nc(O)c(-c2nnc(Cc3ccc(Cl)cn3)o2)c(O)c1-c1c(OC)cccc1OC` ?
Response: 0.01 to 10 nM

Prompt: `CCOCc1nc(O)c(-c2nnc(Cc3ccc(Cl)cc3)s2)c(O)c1-c1c(OC)cccc1OC` ?
Response: 10 to 100 nM

Prompt: `CCOCc1nc(O)c(-c2nnc(Cc3noc4ccccc34)o2)c(O)c1-c1ccccc1OC` ?
Response: 0.01 to 10 nM

Prompt: `CCCCc1nc(O)c(-c2nnc(CC(=O)NCc3ccc(OC)cc3)o2)c(O)c1-c1c(OC)cccc1OC` ?
Response: 0.01 to 10 nM

Prompt: `CCCCc1nc(O)c(-c2nnc(CC(=O)NCc3ncco3)o2)c(O)c1-c1c(OC)cccc1OC` ?
Response: 0.01 to 10 nM

Prompt: `COCCOCc1nc(O)c(-c2nnc(Cc3noc4ccccc34)o2)c(O)c1-c1c(OC)cccc1OC` ?
Response: 10 to 100 nM

Prompt: `COCCOCc1nc(O)c(-c2nnc(Cc3ccc(Cl)cc3)o2)c(O)c1-c1c(OC)cccc1OC` ?
Response: 10 to 100 nM

Prompt: `CCCCc1nc(O)c(-c2nnc(CC(=O)N(C)Cc3ccccc3)o2)c(O)c1-c1c(OC)cccc1OC` ?
Response: 0.01 to 10 nM

Prompt: CCOCc1nc(O)c(-c2nnc(Cc3ccc(Cl)cn3)o2)c(O)c1-c1c(O)cccc1OC [Example 274] ?
Response: 0.01 to 10 nM

Prompt: `COc1cccc(OC)c1-c1c(C2CCCC2)nc(O)c(-c2nnc(Cc3ccc(Cl)cn3)o2)c1O` ?
Response: 0.01 to 10 nM

Prompt: `CCCCc1nc(O)c(-c2nnc(CC(=O)NCc3ccccc3C)o2)c(O)c1-c1c(OC)cccc1OC` ?
Response: 0.01 to 10 nM

Prompt: `CCCCc1nc(O)c(-c2nnc(CC(=O)NCc3cccnc3)o2)c(O)c1-c1c(OC)cccc1OC` ?
Response: 0.01 to 10 nM

Prompt: `CCCCc1nc(O)c(-c2nnc(CC(=O)NCCc3ccc(S(N)(=O)=O)cc3)o2)c(O)c1-c1c(OC)cccc1OC` ?
Response: 0.01 to 10 nM

Prompt: `C#CCNC(=O)Cc1nnc(-c2c(O)nc(CCCC)c(-c3c(OC)cccc3OC)c2O)o1` ?
Response: 0.01 to 10 nM

Prompt: `CCOCc1nc(O)c(-c2nnc(Cc3ccc(Cl)cn3)o2)c(O)c1-c1c(O)cccc1O` ?
Response: 10 to 100 nM

Prompt: CCOCc1nc(O)c(-c2nnc(Cc3ccc(Cl)cn3)o2)c(O)c1-c1c(O)cccc1OC [Example 275] ?
Response: 10 to 100 nM

Prompt: `CCCCc1nc(O)c(-c2nnc(CC(=O)NCc3cccc(Cl)c3)o2)c(O)c1-c1c(OC)cccc1OC` ?
Response: 0.01 to 10 nM
